Entry source: patent US7674819B2

Assignment: determine reported IC50 for the given compounds.
- target_desc: hAR (Homo sapiens, UniProt P10275)
- method: Competitive binding of 3H-DHT to baculovirus/Sf9 generated hAR extracts
- condition_info: concentration at which one half of maximum binding of 1 nM 3H-DHT to hAR is inhibited; one hour at 4° C.; mean of multiple tests; read-out: IC50
Numbers only, in nM.

Example compounds with recorded IC50:
CC1(C)CN(S(=O)(=O)c2cccc(C#N)c2)C(=O)C1Oc1ccc(C#N)c(C(F)(F)F)c1 (stereo not shown)    110
CC1(C)CN(S(=O)(=O)c2ccccc2)C(=O)C1Oc1ccc(C#N)c(C(F)(F)F)c1 (stereo not shown)    206
CC1(C)CN(Cc2ccc3ccccc3n2)C(=O)C1Oc1ccc(C#N)c(C(F)(F)F)c1 (stereo not shown)    217

Return reported IC50 values for all items listed beneath this line.
1. CCCC(=O)N1CC(C)(C)C(Oc2ccc(C#N)c(C(F)(F)F)c2)C1=O (single isomer, unassigned; (+)) [Example 103]
2. Cc1nc(C)c(S(=O)(=O)N2CC(C)(C)C(Oc3ccc(C#N)c(C(F)(F)F)c3)C2=O)s1 (stereo not shown)
3. CC1(C)CN(C(=O)Cc2ccccc2)C(=O)C1Oc1ccc(C#N)c(C(F)(F)F)c1 (stereo not shown)
4. CC1(C)CN(C(=O)c2ccc(C#N)cc2)C(=O)C1Oc1ccc(C#N)c(C(F)(F)F)c1 (stereo not shown)

Solution:
[130, 281, 174, 248]

====

- target_desc: UniProt:P10275
- Sequence (P10275 1-920): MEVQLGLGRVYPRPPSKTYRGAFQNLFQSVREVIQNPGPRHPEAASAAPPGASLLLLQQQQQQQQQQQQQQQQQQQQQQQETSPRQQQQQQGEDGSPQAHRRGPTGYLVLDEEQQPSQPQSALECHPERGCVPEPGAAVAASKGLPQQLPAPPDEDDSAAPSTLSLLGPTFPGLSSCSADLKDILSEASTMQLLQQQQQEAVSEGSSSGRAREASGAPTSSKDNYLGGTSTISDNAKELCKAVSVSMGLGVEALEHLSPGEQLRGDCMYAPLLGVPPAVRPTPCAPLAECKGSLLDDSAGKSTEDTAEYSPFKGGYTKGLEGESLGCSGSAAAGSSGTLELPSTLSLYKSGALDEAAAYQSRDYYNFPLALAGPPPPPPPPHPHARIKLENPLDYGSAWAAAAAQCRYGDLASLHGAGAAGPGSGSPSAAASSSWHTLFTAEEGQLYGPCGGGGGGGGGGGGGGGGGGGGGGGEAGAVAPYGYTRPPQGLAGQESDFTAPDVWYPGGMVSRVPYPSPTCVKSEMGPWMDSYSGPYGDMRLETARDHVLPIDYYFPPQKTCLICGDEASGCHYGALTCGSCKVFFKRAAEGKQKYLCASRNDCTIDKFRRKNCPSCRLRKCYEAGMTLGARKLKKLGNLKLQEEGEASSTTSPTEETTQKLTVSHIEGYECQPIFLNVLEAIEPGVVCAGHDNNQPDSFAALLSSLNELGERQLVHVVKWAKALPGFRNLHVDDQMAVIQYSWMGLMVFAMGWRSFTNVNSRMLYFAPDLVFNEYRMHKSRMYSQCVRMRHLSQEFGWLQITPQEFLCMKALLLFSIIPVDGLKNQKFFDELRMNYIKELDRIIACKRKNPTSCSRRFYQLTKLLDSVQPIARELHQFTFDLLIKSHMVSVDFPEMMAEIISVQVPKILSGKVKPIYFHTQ
- method: Competitive binding of 3H-DHT to baculovirus/Sf9 generated hAR extracts
- condition_info: concentration at which one half of maximum binding of 1 nM 3H-DHT to hAR is inhibited; one hour at 4° C.; mean of multiple tests; read-out: IC50
experimental_endpoint: pIC50
Numbers only, as −log10 of the molar value.

Return reported pIC50 values for all items listed beneath this line.
1. CC1(C)CN(Cc2cccc(OC(F)F)c2)C(=O)C1Oc1ccc(C#N)c(C(F)(F)F)c1 (stereo not shown)
2. CC1(C)CN(Cc2ccc(C#N)cc2)C(=O)C1Oc1ccc(C#N)c(C(F)(F)F)c1 (stereo not shown)
3. Cn1c(CN2CC(C)(C)C(Oc3ccc(C#N)c(C(F)(F)F)c3)C2=O)nc2ccccc21 (stereo not shown)
4. CC1(C)CN(C(=O)c2ccccc2)C(=O)C1Oc1ccc(C#N)c(C(F)(F)F)c1 (racemic) [Example 97]

Solution:
1. 6.92
2. 6.96
3. 6.30
4. 6.51
